- targetDesc: human DGKζ (Homo sapiens (Human), UniProt Q13574)
- Sequence (Q13574 other isoform, or with tags, fused parts or gaps): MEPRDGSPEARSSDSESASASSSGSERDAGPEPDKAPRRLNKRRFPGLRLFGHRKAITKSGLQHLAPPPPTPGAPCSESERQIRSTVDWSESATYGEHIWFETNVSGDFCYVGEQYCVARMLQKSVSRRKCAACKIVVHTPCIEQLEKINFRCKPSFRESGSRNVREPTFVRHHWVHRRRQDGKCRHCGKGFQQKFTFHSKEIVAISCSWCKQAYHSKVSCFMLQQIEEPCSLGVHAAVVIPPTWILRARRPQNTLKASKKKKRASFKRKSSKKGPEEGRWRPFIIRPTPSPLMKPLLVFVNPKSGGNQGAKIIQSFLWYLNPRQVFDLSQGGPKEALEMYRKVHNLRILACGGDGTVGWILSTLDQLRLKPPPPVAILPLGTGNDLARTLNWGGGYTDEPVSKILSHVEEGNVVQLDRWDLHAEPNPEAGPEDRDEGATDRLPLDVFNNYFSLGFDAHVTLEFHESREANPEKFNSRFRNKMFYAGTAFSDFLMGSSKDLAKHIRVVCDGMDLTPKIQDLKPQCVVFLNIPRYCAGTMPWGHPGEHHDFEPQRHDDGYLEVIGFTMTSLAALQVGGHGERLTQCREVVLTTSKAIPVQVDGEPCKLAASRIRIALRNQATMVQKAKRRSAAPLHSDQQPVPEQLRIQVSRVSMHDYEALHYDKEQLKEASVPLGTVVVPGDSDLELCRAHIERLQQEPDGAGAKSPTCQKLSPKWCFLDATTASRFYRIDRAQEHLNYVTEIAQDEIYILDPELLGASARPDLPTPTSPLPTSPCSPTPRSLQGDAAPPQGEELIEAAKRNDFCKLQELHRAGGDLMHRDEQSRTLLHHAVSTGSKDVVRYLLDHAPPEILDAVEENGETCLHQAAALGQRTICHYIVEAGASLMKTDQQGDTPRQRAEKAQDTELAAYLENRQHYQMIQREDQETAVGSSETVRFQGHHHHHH
- testName: DGKζ LIPGLO assay (extruded liposome substrate)
- Type: biochemical
- runParameters: extruded liposome substrate; read-out: DGKζ LIPGLO IC50
pIC50: −log10 of the molar value.
experimentalEndpoint: pIC50

compound="CC(C)C(c1ccc(F)cc1)N1CCN(c2c(C#N)c(=O)n(C)c3ccc(Cl)nc23)CC1 (single isomer, unassigned) [Example 316]" experimentalendpoint=pIC50 modifiersign=< numericreadout=3.62
compound="C#CCn1c(=O)c([N+](=O)[O-])c(N2CCN(C(c3ccc(F)cc3)c3ccc(F)cc3OC)CC2)c2nc(C#N)ccc21 (single isomer, unassigned) [Example 128]" experimentalendpoint=pIC50 modifiersign== numericreadout=7.32
compound="CC(c1ccc(F)cc1)N1CCN(c2c([N+](=O)[O-])c(=O)n(CC#N)c3ccc(C#N)nc23)CC1 (stereo not drawn) [Example 151]" experimentalendpoint=pIC50 modifiersign== numericreadout=5.51

###

Form field: IC50 (one value per entry).
- targetDesc: human DGKα (Homo sapiens (Human), UniProt P23743)
- Sequence (P23743 other isoform, or with tags, fused parts or gaps): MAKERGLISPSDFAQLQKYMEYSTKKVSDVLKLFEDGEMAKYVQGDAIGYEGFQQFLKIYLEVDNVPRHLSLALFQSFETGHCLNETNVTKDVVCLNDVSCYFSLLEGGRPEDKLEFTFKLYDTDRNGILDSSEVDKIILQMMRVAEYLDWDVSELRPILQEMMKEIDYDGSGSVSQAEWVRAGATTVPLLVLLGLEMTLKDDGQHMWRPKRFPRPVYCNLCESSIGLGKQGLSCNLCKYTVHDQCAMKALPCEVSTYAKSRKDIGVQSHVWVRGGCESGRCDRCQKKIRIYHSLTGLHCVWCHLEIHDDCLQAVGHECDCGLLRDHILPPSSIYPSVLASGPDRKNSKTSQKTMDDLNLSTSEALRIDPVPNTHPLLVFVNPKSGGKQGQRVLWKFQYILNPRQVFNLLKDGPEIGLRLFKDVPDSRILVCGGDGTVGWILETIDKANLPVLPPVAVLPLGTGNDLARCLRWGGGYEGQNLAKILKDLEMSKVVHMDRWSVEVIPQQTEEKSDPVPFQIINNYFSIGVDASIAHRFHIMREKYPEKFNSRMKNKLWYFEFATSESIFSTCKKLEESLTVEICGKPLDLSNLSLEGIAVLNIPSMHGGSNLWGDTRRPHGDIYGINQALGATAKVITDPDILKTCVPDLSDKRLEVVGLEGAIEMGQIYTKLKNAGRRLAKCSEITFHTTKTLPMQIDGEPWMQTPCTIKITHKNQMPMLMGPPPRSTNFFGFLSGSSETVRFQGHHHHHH
- testName: biochemical
- runParameters: DGKα IC50, detergent/lipid micelle substrate
- Experimental: The DGKα and DGKζ reactions were performed using either extruded liposome (DGKα and DGKζ LIPGLO assays) or detergent/lipid micelle substrate (DGKα and DGKζ assays). […] The compound inhibition studies were carried out as follows: 50 nL droplets of each test compound (top concentration 10 mM with 11 point, 3-fold dilution series for each compound) solubilized in DMSO were transferred to wells of a white 1536 well plate (Corning 3725). […] Luminescence was recorded using an EnVision microplate reader. […]
experimentalEndpoint: IC50 (nM)

compound="Cn1c(=O)c([N+](=O)[O-])c(N2CCN(C(c3ccc(F)cc3)C3CC3)CC2)c2nc(C#N)ccc21 (single isomer, unassigned) [Example 51]" numericreadout=180
compound="Cn1c(=O)c([N+](=O)[O-])c(N2CCN(C(c3ccc(F)cc3)C3CC3)CC2)c2nc(C#N)ccc21 (racemic) [Example 49]" numericreadout=180
compound="C#CCn1c(=O)c([N+](=O)[O-])c(N2CCN(C(c3ccc(F)cc3)c3ccccc3O)CC2)c2nc(C#N)ccc21 (single isomer, unassigned) [Example 133]" numericreadout=3300
compound="C#CCn1c(=O)c([N+](=O)[O-])c(N2CCN(C(c3ccc(F)cc3)c3ccccc3O)CC2)c2nc(C#N)ccc21 (racemic) [Example 132]" numericreadout=3300

###

- targetDesc: human DGKζ (Homo sapiens (Human))
- testName: DGKζ assay (detergent/lipid micelle substrate)
- Assay type: biochemical
- runParameters: detergent/lipid micelle substrate; read-out: DGKζ IC50
experimentalEndpoint: IC50 (µM)

compound=COc1cccc(CN2CCN(c3c(C#N)c(=O)n(C)c4ccc(C)nc34)CC2)c1O modifiersign=> numericreadout=81
compound="C#CCn1c(=O)c(C#N)c(N2CCN(C(c3ccc(F)cc3)c3ccccc3O)CC2)c2nc(Br)ccc21 (single isomer, unassigned) [Example 106]" modifiersign== numericreadout=2
compound=Cn1c(=O)c(C#N)c(N2CCN(Cc3c(F)cccc3F)CC2)c2nc(Cl)ccc21 modifiersign=> numericreadout=240
compound=Cc1ccc(CN2CCN(c3c(C#N)c(=O)n(C)c4ccc(Cl)nc34)CC2)c(O)c1 modifiersign== numericreadout=69

###

- targetDesc: human DGKζ (Homo sapiens (Human))
- testName: DGKζ assay (detergent/lipid micelle substrate)
- Format: biochemical
- runParameters: detergent/lipid micelle substrate; read-out: DGKζ IC50
experimentalEndpoint: IC50 (µM)

compound="Cn1c(=O)c(C#N)c(N2CCN(CC(O)c3ccc(F)cc3)CC2)c2nc(Br)ccc21 (single isomer, unassigned) [Example 29]" targetdesc="human DGKζ (Homo sapiens (Human))" experimentalendpoint=IC50 readingunit=µM modifiersign=> numericreadout=240
compound="Cn1c(=O)c(C#N)c(N2CCN(C(C)(C)c3ccc(F)cc3)CC2)c2nc(Cl)ccc21 [Example 425]" targetdesc="human DGKζ (Homo sapiens (Human))" experimentalendpoint=IC50 readingunit=µM modifiersign=> numericreadout=240
compound="C#CCn1c(=O)c([N+](=O)[O-])c(N2CCN(C(c3ccc(F)cc3)c3ccc(F)cc3OC)CC2)c2nc(C#N)ccc21 (single isomer, unassigned) [Example 127]" targetdesc="human DGKζ (Homo sapiens (Human))" experimentalendpoint=IC50 readingunit=µM modifiersign== numericreadout=0.25
compound="Cn1c(=O)c(C#N)c(N2CCN(Cc3c(O)cccc3Br)CC2)c2nc(Br)ccc21 [Example 271]" targetdesc="human DGKζ (Homo sapiens (Human))" experimentalendpoint=IC50 readingunit=µM modifiersign== numericreadout=110

###

- System: pre-activated CD4 T cells and Raji cells
- testName: Raji CD4 T Cell IL2 Assay
- Assay type: cell-based
pIC50: −log10 of the molar value.
experimentalEndpoint: pIC50

molecule="Cn1c(=O)c(C#N)c(N2CCN(C(c3ccc(F)cc3)c3ccccc3O)CC2)c2nc(Br)ccc21 (single isomer, unassigned) [Example 10]" experimentalendpoint=pIC50 modifiersign== numericreadout=8.52
molecule="CC(c1ccc(F)cc1)N1CCN(c2c(C#N)c(=O)n(C)c3ccc(Br)nc23)CC1 (single isomer, unassigned) [Example 23]" experimentalendpoint=pIC50 modifiersign== numericreadout=7.39
molecule="COCCn1c(=O)c([N+](=O)[O-])c(N2CCN(C(C)c3ccc(F)cc3)CC2)c2nc(C#N)ccc21 (single isomer, unassigned) [Example 149]" experimentalendpoint=pIC50 modifiersign== numericreadout=7.19
molecule="Cn1c(=O)c([N+](=O)[O-])c(N2CCN(C(c3ccc(F)cc3)c3ccccc3O)CC2)c2nc(C#N)ccc21 (single isomer, unassigned) [Example 98]" experimentalendpoint=pIC50 modifiersign== numericreadout=6.89
molecule="COCCn1c(=O)c(C#N)c(N2CCN(C(c3ccc(F)cc3)c3ccc(F)cc3OC)CC2)c2nc(Br)ccc21 (single isomer, unassigned) [Example 116]" experimentalendpoint=pIC50 modifiersign== numericreadout=6.77
molecule="Cn1c(=O)c(C#N)c(N2CCN(CC(O)c3ccc(F)cc3)CC2)c2nc(Br)ccc21 (single isomer, unassigned) [Example 30]" experimentalendpoint=pIC50 modifiersign== numericreadout=5.96
molecule="COc1ccccc1C(c1ccc(F)cc1)N1CCN(c2c(C#N)c(=O)n(CC3CC3)c3ccc(Br)nc23)CC1 (single isomer, unassigned)" experimentalendpoint=pIC50 modifiersign== numericreadout=5.54
molecule="COCCn1c(=O)c(C#N)c(N2CCN(C(c3ccc(F)cc3)c3ccc(F)cc3OC)CC2)c2nc(Br)ccc21 (single isomer, unassigned) [Example 115]" experimentalendpoint=pIC50 modifiersign== numericreadout=5.42
molecule="Cn1c(=O)c(C#N)c(N2CCN(CC(O)c3ccc(F)cc3)CC2)c2nc(Br)ccc21 (single isomer, unassigned) [Example 29]" experimentalendpoint=pIC50 modifiersign== numericreadout=5.64
molecule="C#CCOc1ccccc1C(c1ccc(F)cc1)N1CCN(c2c(C#N)c(=O)n(C)c3ccc(Br)nc23)CC1 (single isomer, unassigned) [Example 7]" experimentalendpoint=pIC50 modifiersign== numericreadout=7.12
molecule="Cn1c(=O)c([N+](=O)[O-])c(N2CCN(C(c3ccc(F)cc3)c3cccc(F)c3O)CC2)c2nc(Br)ccc21 (single isomer, unassigned) [Example 75]" experimentalendpoint=pIC50 modifiersign== numericreadout=6.85
molecule="COc1ccccc1C(c1ccc(F)cc1)N1CCN(c2c([N+](=O)[O-])c(=O)n(C)c3ccc(C#N)nc23)CC1 (single isomer, unassigned)" experimentalendpoint=pIC50 modifiersign=< numericreadout=4.00
molecule="Cc1cccc(OCc2cncc(C#N)c2)c1C(c1ccc(F)cc1)N1CCN(c2c([N+](=O)[O-])c(=O)n(C)c3ccc(Br)nc23)CC1 (single isomer, unassigned) [Example 90]" experimentalendpoint=pIC50 modifiersign== numericreadout=6.20
molecule="COc1ccccc1C(c1ccc(F)cc1)N1CCN(c2c(C#N)c(=O)n(C)c3ccc(Br)nc23)CC1 (single isomer, unassigned) [Example 13]" experimentalendpoint=pIC50 modifiersign=< numericreadout=4.00
molecule="Cn1c(=O)c([N+](=O)[O-])c(N2CCN(C(c3ccc(F)cc3)C3CC3)CC2)c2nc(C#N)ccc21 (single isomer, unassigned) [Example 50]" experimentalendpoint=pIC50 modifiersign== numericreadout=7.41
molecule="COc1cccc(C)c1C(c1ccc(F)cc1)N1CCN(c2c([N+](=O)[O-])c(=O)n(C)c3ccc(Br)nc23)CC1 (single isomer, unassigned) [Example 60]" experimentalendpoint=pIC50 modifiersign== numericreadout=5.80
molecule="Cn1c(=O)c([N+](=O)[O-])c(N2CCN(C(c3ccc(F)cc3)c3ccccc3O)CC2)c2nc(C#N)ccc21 (single isomer, unassigned) [Example 99]" experimentalendpoint=pIC50 modifiersign== numericreadout=8.03
molecule="CCC(c1ccc(F)cc1)N1CCN(c2c([N+](=O)[O-])c(=O)n(C)c3ccc(C#N)nc23)CC1 (single isomer, unassigned)" experimentalendpoint=pIC50 modifiersign== numericreadout=7.46
